# system_name: cynomolgus BCMA on cells (cynomolgus monkey, UniProt Q02223 1-184 (human entry))
# Sequence (Q02223 other isoform, or with tags, fused parts or gaps): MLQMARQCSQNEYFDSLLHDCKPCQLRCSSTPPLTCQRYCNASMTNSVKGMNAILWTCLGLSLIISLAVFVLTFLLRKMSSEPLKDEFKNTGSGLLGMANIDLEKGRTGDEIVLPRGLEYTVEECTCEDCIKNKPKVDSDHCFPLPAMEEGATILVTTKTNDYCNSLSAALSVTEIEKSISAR
# method: FACS, 293T-cynoBCMA cells
pKd: −log10 of the molar value.
metric: pKd

binder="9A8 (antibody, V domains shown, Chicken HybriFree-derived antibody; also called Antibody 30) VH: AVTLDESGGGLQTPGGTLSLVCKASGFTFSSFNMFWVRQAPGKGLEWVAYIRNDGNSASYGPAVKGRATISRDNGQSTVRLQLNNLRAEDTATYYCAKTTCIGSGGCIDTWGHGTEVIVSS VL: ALTQPSSVSANPGETVKITCSGGSSDYGWFQQKSPGSAPVTVIYSNNQRPSGIPSRFSGSKSGSTGTLTITGVQAEDEAIYYCANVDYTDDVFGAGTTLTVL" metric=pKd endpoint_value=8.05
binder="10F4 (antibody, V domains shown, Chicken HybriFree-derived antibody; also called Antibody 37) VH: AVTLDESGGGLQTPGGALSLVCKASGFTFSGYNMGWVRQAPGKGLEYVAGITYGTGSYTAYGAAVKGRATISRDNGQSTLRLQLNNLRAEDTATYYCARGGGLNSYGCSGANIDAWGHGTEVIVSS VL: ALTQPSSVSANLGGTVKITCSGGGNYFGSYYYGWYQQKAPGSAPVTVIYNNNNRPSDIPSRFSGSTSGSTSTLTISGVRAEDEAVYFCGGFDSSTDAIFGAGTTLTVL" metric=pKd endpoint_value=8.23
binder="9H1 (antibody, V domains shown, Chicken HybriFree-derived antibody; also called Antibody 44) VH: AVTLDESGGGLQTPGGALSLVCKGSGFTFSDYGMGWMRQAPGKGLQYVARINSAGSDTNYGSAVKGRATISRDDGQSTVRLQLSSLRAEDTGIYYCTRGGGGASIDGWGHGTEVIVSS VL: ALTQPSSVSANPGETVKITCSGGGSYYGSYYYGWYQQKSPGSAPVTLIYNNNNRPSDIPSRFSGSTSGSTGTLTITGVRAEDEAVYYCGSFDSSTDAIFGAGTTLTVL" metric=pKd endpoint_value=9.41
binder="11D6 (antibody, V domains shown, Chicken HybriFree-derived antibody; also called Antibody 32) VH: AVTLDESGGGLQTPGGTLSLVCKASGFTFSSFNMFWVRQAPGEGLEWVAYIRNDGRSTSYGPAVKGRATISRDNGQSTVRLQLNNLRAEDTGTYFCAKTTCVGSGGCIDTWGHGTEVIVSS VL: ALTQPSSVSANPGETVEITCSGGNSDYGWFQQKSPGSAPVTVIYRNNQRPSDIPSRFSGSGSGSTNTLTITGVQAEDEAIYYCGNVDFTDDVFGAGTTLTVL" metric=pKd endpoint_value=7.91
binder="10G5 (antibody, V domains shown, Chicken HybriFree-derived antibody; also called Antibody 31) VH: AVTLDESGGGLQTPGGVLSLVCKASGFTFSSFNMFWVRQAPGKGLEWVAYISNDGSSTSYGPAVKGRATISRDNGQSTVRLQLNNLRAEDTATYFCAKTTCIGSGGCIDTWGHGTEVIVSS VL: ALTQPSSVSANPGETVKITCSGGNYDYGWYQQKSPGSAPVTLIYYNNKRPSDIPSRFSGSKSGSTGTLTITGVQAEDEAIYYCANVDSTDDVFGAGTTLTVL" metric=pKd endpoint_value=8.13
binder="9A5 (antibody, V domains shown, Chicken HybriFree-derived antibody; also called Antibody 42) VH: AVTLDESGGGLQTPGGAVSLVCKASGFSISDYGMGWMRQAPGKGLQYVARIDHDGRYTDYGAVVKGRATISRDNGQSTVRLQLNNLRAEDTGTYYCTRGGGAASIDTWGHGTEVIVSS VL: ALTQPSSVSANPGETVKITCSGGGNYVGGYYYGWYQQKAPGSALVTLIYNNNNRPSNIPSRFSGSTSGSTSTLTITGVRAEDEAVYFCGSFDSSTDAIFGAGTTLTVL" metric=pKd endpoint_value=9.19
binder="10E10 (antibody, V domains shown, Chicken HybriFree-derived antibody; also called Antibody 46) VH: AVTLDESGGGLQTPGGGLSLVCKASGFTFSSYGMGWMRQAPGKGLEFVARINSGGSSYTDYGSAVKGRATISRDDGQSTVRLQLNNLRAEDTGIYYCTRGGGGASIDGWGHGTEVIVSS VL: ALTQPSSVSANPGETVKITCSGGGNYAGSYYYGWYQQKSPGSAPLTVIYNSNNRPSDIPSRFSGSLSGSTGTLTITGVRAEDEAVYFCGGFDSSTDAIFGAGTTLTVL" metric=pKd endpoint_value=7.72
binder="9E12 (antibody, V domains shown, Chicken HybriFree-derived antibody; also called Antibody 43) VH: AVTLDESGGGLQTPGGGLSLVCKASGFTFSDYGLGWMRQAPGKGLEYVARINSAGSGTYYGSAVDGRATISRDNGQSTVRLQLNNLRAEDTGTYYCTRGGGGASIDGWGHGTEVIVSS VL: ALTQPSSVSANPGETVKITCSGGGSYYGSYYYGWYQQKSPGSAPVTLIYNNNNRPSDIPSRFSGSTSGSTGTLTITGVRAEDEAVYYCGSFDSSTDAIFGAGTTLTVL" metric=pKd endpoint_value=9.47
binder="10H1 (antibody, V domains shown, Chicken HybriFree-derived antibody; also called Antibody 45) VH: AVTLDESGGGLQTPGGALSLVCKASGFTFSGYGMGWMRQAPGKGLEYVARINSAGSDTDYGAAVKGRATISRDNGQSTVRLQLNNLRAEDTATYFCTRGGGGASIDGWGHGTEVIVSS VL: ALTQPSSVSANPGETVKITCSGGGNYYGSYYYGWYQQKAPGSAPVTVIYNNNNRPSNIPSRFSGSKSGSTGTLTITGVQAEDEAVYFCGGFDSSSDAIFGAGTTLTVL" metric=pKd endpoint_value=9.60
